# Tested on: Ba/F3 (JAK2 V617F) cells
# Test name: Proliferation inhibition assay (CellTiter-Glo), Ba/F3 JAK2 V617F
# Format: cell-based
# Assay conditions: Mus musculus, BaF3; without IL3, 72 h; read-out: Ba/F3 JAK2 V617F, CC50 3 days

Input smiles: COc1c(Nc2nc(Nc3cnn(CCCN(C)C)c3)ncc2C(N)=O)cccc1-c1ncn(C)n1
CC50: 5000 to 10000 nM
//
Input smiles: COc1c(Nc2nc(Nc3cnn(C(C)C)c3)ncc2C(N)=O)cccc1-c1ccccn1
CC50: ≤ 500 nM
//
Input smiles: COc1c(Nc2nc(Nc3cnn(-c4ccccc4)c3)ncc2C(N)=O)cccc1-c1ncn(C)n1
CC50: ≤ 500 nM
//
Input smiles: COc1c(Nc2nc(Nc3cnn(C4CCN(C(C)C)CC4)c3)ncc2C(N)=O)cccc1-c1nc2ccccc2o1
CC50: ≤ 500 nM
//
Input smiles: COc1c(Nc2nc(Nc3cnn(C4CCN(C(C)C)CC4)c3)ncc2C(N)=O)cccc1-c1ccccn1
CC50: ≤ 500 nM
//
Input smiles: COc1c(Nc2nc(Nc3cnn(C)c3)ncc2C(N)=O)cccc1-c1cccnc1
CC50: > 10000 nM
//
Input smiles: COc1c(Nc2nc(Nc3cnn(C(C)C)c3)ncc2C(N)=O)cccc1-c1nc2ccccc2o1
CC50: ≤ 500 nM
//
Input smiles: COc1c(Nc2nc(Nc3cnn(C)c3)ncc2C(N)=O)cccc1-c1nc2ccccc2o1
CC50: ≤ 500 nM
//
Input smiles: COc1c(Nc2nc(Nc3cnn(C(C)C)c3)ncc2C(N)=O)cccc1-c1ncn(C)n1
CC50: ≤ 500 nM
//
Input smiles: COc1c(Nc2nc(Nc3cnn(C45CC6CC(CC(C6)C4)C5)c3)ncc2C(N)=O)cccc1-c1ncn(C)n1
CC50: ≤ 500 nM
//
Input smiles: COc1c(Nc2nc(Nc3cnn(C4CCNCC4)c3)ncc2C(N)=O)cccc1-c1nc2ccccc2o1
CC50: 1000 to 5000 nM
//
Input smiles: COCCn1cc(Nc2ncc(C(N)=O)c(Nc3cccc(-c4nc5ccccc5o4)c3OC)n2)cn1
CC50: ≤ 500 nM
//
Input smiles: COc1c(Nc2nc(Nc3cnn(CC(C)C)c3)ncc2C(N)=O)cccc1-c1nc2ccccc2o1
CC50: 500 to 1000 nM
//
Input smiles: COc1c(Nc2nc(Nc3cnn(CC(F)(F)F)c3)ncc2C(N)=O)cccc1-c1nc2ccccc2o1
CC50: > 10000 nM
//
Input smiles: COc1c(Nc2nc(Nc3c(C)nn(C)c3C)ncc2C(N)=O)cccc1-c1ncn(C)n1
CC50: > 10000 nM
//
Input smiles: COc1c(Nc2nc(Nc3cnn(C4CCN(C)CC4)c3)ncc2C(N)=O)cccc1-c1nc2ccccc2o1
CC50: 500 to 1000 nM
//
Input smiles: COc1c(Nc2nc(Nc3cnn(CC(C)C)c3)ncc2C(N)=O)cccc1-c1ncn(C)n1
CC50: 500 to 1000 nM
//
Input smiles: CCOCCn1cc(Nc2ncc(C(N)=O)c(Nc3cccc(-c4ncn(C)n4)c3OC)n2)cn1
CC50: 1000 to 5000 nM
//
Input smiles: CCn1nc(C)c(Nc2ncc(C(N)=O)c(Nc3cccc(-c4ncn(C)n4)c3OC)n2)c1C
CC50: 5000 to 10000 nM
//
Input smiles: COc1c(Nc2nc(Nc3cnn(C45CC6CC(CC(C6)C4)C5)c3)ncc2C(N)=O)cccc1-c1ccccn1
CC50: 1000 to 5000 nM
//
Input smiles: COc1c(Nc2nc(Nc3cnn(CCCN(C)C)c3)ncc2C(N)=O)cccc1-c1nc2ccccc2o1
CC50: ≤ 500 nM
//
Input smiles: COc1c(Nc2nc(Nc3cnn(C4CCOCC4)c3)ncc2C(N)=O)cccc1-c1ccccn1
CC50: ≤ 500 nM
//
Input smiles: COc1c(Nc2nc(Nc3cnn(CCN(CC(C)C)CC(C)C)c3)ncc2C(N)=O)cccc1-c1ccccn1
CC50: 1000 to 5000 nM
//
Input smiles: COc1c(Nc2nc(Nc3cnn(C)c3)ncc2C(N)=O)cccc1-c1ncn(C)n1
CC50: 1000 to 5000 nM
//
Input smiles: COc1c(Nc2nc(Nc3cnn(C4CCOCC4)c3)ncc2C(N)=O)cccc1-c1ncn(C)n1
CC50: ≤ 500 nM
//
Input smiles: COCCn1cc(Nc2ncc(C(N)=O)c(Nc3cccc(-c4ncn(C)n4)c3OC)n2)cn1
CC50: 1000 to 5000 nM
//
Input smiles: COc1c(Nc2nc(Nc3cnn(C4CCN(C)CC4)c3)ncc2C(N)=O)cccc1-c1ccccn1
CC50: 1000 to 5000 nM
//
Input smiles: CCOCCn1cc(Nc2ncc(C(N)=O)c(Nc3cccc(-c4nc5ccccc5o4)c3OC)n2)cn1
CC50: ≤ 500 nM
//
Input smiles: CCCCCCn1cc(Nc2ncc(C(N)=O)c(Nc3cccc(-c4ncn(C)n4)c3OC)n2)cn1
CC50: ≤ 500 nM
//
Input smiles: COc1c(Nc2nc(Nc3cnn(C4CCN(C(C)C)CC4)c3)ncc2C(N)=O)cccc1-c1ncn(C)n1
CC50: 1000 to 5000 nM
//
Input smiles: COc1c(Nc2nc(Nc3cnn(CCN(CC(C)C)CC(C)C)c3)ncc2C(N)=O)cccc1-c1ncn(C)n1
CC50: ≤ 500 nM
